- tgt: EGFR (Homo sapiens, UniProt P00533)
- Construct: purchased #40321
- Sequence (P00533 25-1210): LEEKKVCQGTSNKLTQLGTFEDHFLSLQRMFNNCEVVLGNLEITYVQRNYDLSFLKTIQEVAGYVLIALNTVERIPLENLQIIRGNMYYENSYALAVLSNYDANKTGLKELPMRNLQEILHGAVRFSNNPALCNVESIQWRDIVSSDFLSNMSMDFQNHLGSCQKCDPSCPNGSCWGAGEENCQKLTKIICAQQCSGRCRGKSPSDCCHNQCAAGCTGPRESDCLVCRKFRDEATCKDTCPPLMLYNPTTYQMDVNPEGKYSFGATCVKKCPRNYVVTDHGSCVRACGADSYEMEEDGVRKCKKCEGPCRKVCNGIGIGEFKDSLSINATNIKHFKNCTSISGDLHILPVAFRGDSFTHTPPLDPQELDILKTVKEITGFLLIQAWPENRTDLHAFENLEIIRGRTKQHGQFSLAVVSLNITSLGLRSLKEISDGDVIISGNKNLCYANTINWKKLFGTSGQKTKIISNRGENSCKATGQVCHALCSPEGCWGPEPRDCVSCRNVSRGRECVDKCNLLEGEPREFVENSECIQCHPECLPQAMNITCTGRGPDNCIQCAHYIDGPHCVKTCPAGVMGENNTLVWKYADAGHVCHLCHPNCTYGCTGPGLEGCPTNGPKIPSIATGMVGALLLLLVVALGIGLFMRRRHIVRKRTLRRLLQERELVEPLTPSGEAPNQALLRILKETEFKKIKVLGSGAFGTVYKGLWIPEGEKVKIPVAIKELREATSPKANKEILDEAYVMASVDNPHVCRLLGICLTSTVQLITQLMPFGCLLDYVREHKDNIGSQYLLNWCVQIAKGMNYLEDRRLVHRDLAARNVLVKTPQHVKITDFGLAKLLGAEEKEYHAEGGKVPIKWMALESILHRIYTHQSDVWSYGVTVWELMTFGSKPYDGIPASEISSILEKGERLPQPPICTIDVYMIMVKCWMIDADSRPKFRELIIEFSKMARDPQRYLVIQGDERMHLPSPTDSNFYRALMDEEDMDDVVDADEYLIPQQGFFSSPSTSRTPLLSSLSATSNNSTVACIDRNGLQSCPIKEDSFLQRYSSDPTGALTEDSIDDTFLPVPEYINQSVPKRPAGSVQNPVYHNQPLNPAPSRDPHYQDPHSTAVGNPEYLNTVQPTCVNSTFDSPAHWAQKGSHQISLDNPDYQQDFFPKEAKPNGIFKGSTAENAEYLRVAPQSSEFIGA
- assay-summary: EGFR kinase assay kit, Kinase-Glo MAX luminescence
- Type: biochemical
- experimental-conditions: 0.01 µM; one experimental data
measurement-type: inhibition at 0.01 µM (%)

Here's what some known entries look like.
> print(dat)
                  compound.structure.string                                  tgt  experimental.result
1  NNC(=O)CSc1nc2c(F)cc(F)cc2c(=O)n1Cc1ccccc1  EGFR (Homo sapiens, UniProt P00533)                  8.4
2   NNC(=O)CSc1nc2ccc(F)cc2c(=O)n1Cc1ccccc1  EGFR (Homo sapiens, UniProt P00533)                 11.7

[a] CCOC(=O)CSc1nc2cc(OC)c(OC)cc2c(=O)n1Cc1ccccc1
[b] CCOC(=O)CSc1nc2ccc(F)cc2c(=O)n1Cc1ccccc1
[c] COc1cc2nc(SCC(=O)NN)n(Cc3ccccc3)c(=O)c2cc1OC
## Task I would appreciate it if you could sort these 3 compounds by inhibition at 0.01 µM, starting from the smallest number. API: response body holds the labels in the requested order.
## Result c, a, b
(c: 3.38%, a: 11.8%, b: 22.9%)
